Give composite z-score for every item shown.
Experiment: binders of probe aFST on microarray, primary screen, stem cell growth factor project, biochemical, small-molecule microarray, fluorescence 635/667 (AID 1086);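 note: score merges 667 nm fluorescence with signal-to-noise of each printed compound spot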
Conditions: higher = more signal
API doc: respond with a numeric literal and nothing else, no unit.

composite z-score measured on `COc1ccc([Si](C)(C)[C@@H]2[C@@H](CC(=O)N3Cc4ccccc4C[C@H]3CO)O[C@]3(C(=O)N(C)c4c(Br)cc(C)cc43)[C@H]2C)cc1` = 0.16

Entry `CC(C)(C)OC(=O)CC[C@]12N=C(c3ccc(OCCCO)cc3)O[C@H]1c1ccccc1N(CCS(=O)(=O)c1ccccc1)C2=O` , composite z-score reported as 0.682

Entry under test: `O=C(c1ccccc1)N1Cc2ccccc2[C@@H]2OC(c3ccc(OCCCO)cc3)=N[C@]2(Cc2ccccc2)C1=O` . Its composite z-score was -0.171

Record `O=C(NCc1ccccc1)[C@@H]1c2ccccc2C(=O)N(CC23CC4CC(CC(C4)C2)C3)[C@H]1c1ccc(CO)cc1` . Reported composite z-score: 0.193

For this compound ( CC(C)(C)OC(=O)CC[C@]1(C(=O)NCC(O)CO)COC(c2ccc(OCCCO)cc2)=N1 (stereo partly specified) ), measured composite z-score is 1.24

Short answer for `COC(=O)[C@@]1(Cc2ccc(F)cc2)[C@@H]2[C@@H](CC(=O)[C@H]2CC(=O)C(=O)N(C)C)CN1C(=O)c1ccccc1` : composite z-score was 2.33

Per the records, this compound ( O=C1OCCC/C=C\[C@H]2OC34C=CCN(Cn5nnc6ccccc65)C(=O)[C@H]3N(CCO)C(=O)[C@@H]4C12 (stereo partly specified) ) has composite z-score equal to -0.486

Record CN1C(=O)C2C=CC(C(O)c3cc(C(F)(F)F)cc(C(F)(F)F)c3)N(N3CCCCC3)C2C1=O (stereo unspecified) , field composite z-score: 0.498

composite z-score measured on `COCCOC(=O)N1C(=O)[C@@]2(c3cc(C#CCCO)ccc31)[C@H](c1ccc(OCCO)cc1)N1[C@H](c3ccccc3)[C@H](c3ccccc3)OC(=O)[C@H]1[C@@H]2C(=O)N1CCN(c2ncccn2)CC1` = 0.658

The compound listed as `CC(=O)NCCCC[C@@H]1NC(=O)[C@@H]2C[C@H](C(=O)NCCCCN(C)C)[C@H](c3cccc(OCCO)c3)N2C1=O` has a reported composite z-score of 0.571

Consider `O=C(O)[C@@]1(CCS(=O)(=O)c2ccccc2)COC(c2ccc(OCCCO)cc2)=N1` . Its measured composite z-score is -0.0694
